Target System: T1, human HER3 antigen (Sino Biologicals) (human, UniProt P21860 20-643)
T1 construct: Bought soluble antigen; also called human antigen
Protocol Notes: SPR (ProteOn XPR36), IgG captured by anti-human Fc, soluble monovalent antigen, 1:1 fit
The entries below come with measured Kd values attached.
The figure you give is taken to be in nM; do not add the unit.

Entry under review: chimeric anti-HER3 antibody 5038 (antibody, V domains shown, light chain entry is full length) VH: EVKLVESGPGLVKPSQSLSLTCSVTGYSITSGFYWTWIRQFPGNKLEWMGFISYDGSNNYNPSLKNRISITRDTSKNQFFLKLNSVTTEDTATYYCARGGGYYGNLFDYWGQGTTLTVS VL: DIVMTQTTSSLSASLGDRVTISCRPSQDISNYVNWFQQKPGGTVKLLIFHTSRLHSGVPSRFSGSGSGTDYSLTISTLEQEDIAIYFCQQGITLPWTFGGGTKLEIKR . Reported Kd?
1.6

Also, chimeric anti-HER3 antibody 5082 (antibody, V domains shown, light chain entry is full length) VH: EVQLKESGPGLVKPSQSLSLTCSVTGYSITSAYYWNWIRQFPGNKVEWMGYIGYDGRNTYNPSLKNRISITRDTSKNQFFLKLNSLTTEDTATYYCSREGDYGYSDYWGQGTTLTVS VL: DIVMTQATSSLSASLGDRVTVSCRASQDINNYLNWYQQKPDGTVKLLIYYTSRLQSGVPSRFSGSGSGIDYSLTISNLEQEDFVTYFCQQSETLPWTFGGGTKLELKR please.
0.08

Also, humanized anti-HER3 antibody 10810 (antibody, V domains shown) VH: QVQLQESGPGLVKPSQTLSLTCTVSGYSITSGFYWTWIRQHPGNGLEWIGFISYSGSNNYNPSLKNRVTISVDTSKNQFSLKLSSVTAADTATYYCARGGGYYGNLFDYWGQGTLVTVSS VL: DIQMTQSPSSLSASVGDRVTITCRPSQDISNYVNWFQQKPGKAPKLLIFHTSRLHSGVPSRFSGSGSGTDFTLTISSLQPEDIATYYCQQGITLPWTFGQGTKVEIK please.
1.1

Also, humanized anti-HER3 antibody 11052 (antibody, V domains shown) VH: QVQLQESGPGLVKPSQTLSLTCTVSGYSITSAYYWNWIRQFPGKGVEWMGYIGYSGRNTYNPSLKNRVTISRDTSKNQFSLKLSSVTAADTAVYYCSREGDYGYSDYWGQGTLVTVSS VL: DIQMTQSPSSLSASVGDRVTVTCRASQDINNYLNWYQQKPGKAVKLLIYYTSRLQSGVPSRFSGSGSGTDYTLTISSLQPEDFATYFCQQSETLPWTFGQGTKLEIK please.
0.18
